For each record, write down the corresponding polymerase ribozyme fitness (log ratio).
B1: TPR t1 (parent)
chain: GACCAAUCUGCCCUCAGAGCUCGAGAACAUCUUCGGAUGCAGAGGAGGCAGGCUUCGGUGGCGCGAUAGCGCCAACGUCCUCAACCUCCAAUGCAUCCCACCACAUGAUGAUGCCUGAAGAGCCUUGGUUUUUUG

Variants of: B1
Experiment: polymerase ribozyme fitness, log enrichment relative to wild type (log ratio); higher = more active; in vitro selection for triplet polymerase activity
Enter the number alone.

Any idea what polymerase ribozyme fitness (log ratio) was measured for G45C A46U ?
-2.34

Next: G61A U133G
-0.781

Next: C11U C12A A41C C56G
-2.42

Next: A16C U38G C70A
-4.31

Next: A29U G48U C73G U112A
-0.987

Next: G39C U116C
-2.01

Next: C31A C72G
-5.43

Next: C98U A119U
-1.28

Next: G52U A83U C98U
-2.49

Next: C53U C62U
-1.01

Next: G51U G117A
-5.11

Next: G45A U55C C70U G128A
-4.09

Next: G77A A121U
1.88

Next: A2G C8U U87A C89U C123A
1.08

Next: G39U A74G
-1.85

Next: G39U C79U C88A G110A G117U
-6.66

Next: U9G C11A C70A U87A
-2.04

Next: C15A A27C U55G
-5.9

Next: U7A G52U G60A G61C C62U
-6.92

Next: U38G C73G A95C A100C U106A G127A
-2.6

Next: C53A U54A C56U C101U
0.471

Next: G10C G63U
-2.32
